Provenance of the data: patent US20250188153A1

# testSystem: hMPV F protein of hMPV CAN/97-83 (genotype A) (human metapneumovirus, UniProt Q6WB98 19-539)
# Sequence (Q6WB98 19-539): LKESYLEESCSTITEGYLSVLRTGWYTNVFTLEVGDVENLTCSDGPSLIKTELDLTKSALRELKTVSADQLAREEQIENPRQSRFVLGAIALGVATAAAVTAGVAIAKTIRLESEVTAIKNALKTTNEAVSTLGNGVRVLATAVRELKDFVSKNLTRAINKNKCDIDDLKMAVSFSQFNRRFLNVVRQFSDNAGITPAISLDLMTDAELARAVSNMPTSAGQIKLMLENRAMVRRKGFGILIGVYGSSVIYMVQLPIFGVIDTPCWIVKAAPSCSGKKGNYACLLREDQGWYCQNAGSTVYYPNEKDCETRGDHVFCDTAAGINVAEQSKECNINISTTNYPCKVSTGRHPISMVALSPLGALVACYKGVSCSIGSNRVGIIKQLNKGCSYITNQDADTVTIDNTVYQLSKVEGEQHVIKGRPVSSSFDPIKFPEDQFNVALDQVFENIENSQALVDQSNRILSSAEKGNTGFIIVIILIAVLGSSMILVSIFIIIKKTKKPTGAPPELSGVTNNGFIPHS
# experimentDescription: cell-based or functional assay
We label by threshold. Values of IC50, plaque-reduction neutralization of hMPV CAN/97-83 strictly beneath 20 ng/mL are Yes. Values of 20 ng/mL and up are No.

Field: example entries. Status: answers known.
binder: MPV481 (antibody, V domains shown) VH: EVQLVQSGGGLVKPGGSLRLSCAASGLPFNNAWMNWVRQAPGKGLEWVGRIKSKIDGGTTEYAAPVKGRFTISRDDSENTLYLQMNSLRTEDTAVYYCTTEYYALLSGNYSDCWGQGTLVTVSS VL: DIVMTQSPFSLSLSPGERATLSCRASQSIKRAYLGWYQQKPGQAPRLLIYGASNRATGIPDRFSGSGSGTDFTLTISRLEPEDFAVYYCQQYGDSPGGSFGQGTKLEIR
categoryLabel: No

binder: MPV489 (antibody, V domains shown) VH: EVQLLESGGGLVQPGGSLRLSCAASKFTFNNYEMNWLRQAPGKGLEWVSSISSSGDTIHNADSVKGRFIISRDNAKNSLHLQMNGLRAEDTAVYYCARAGSGWAYDAFDIWGLGTMVTVSS VL: LSASVGDRVTITCRASQSISSFLNWYQQKPGKAPKLLMYAASSLPVGVPSRFSGSGSGPEYTLTISNLQPEDFATYYCQQGYSSPPTFGGGTRLEVK
categoryLabel: No

binder: MPV488 (antibody, V domains shown) VH: EVQLVQSGFEVKKPGASVKVSCKASGYNFNNYGISWVRQAPGQGLEWMGWISAYTGNTNEAQKFQGRVSMTTDTSTSTAYMEVRSLRSDDTAVYYCARDIGSSMFYSYFYGMDVWGQGTTVIVSS VL: SLSVSLGERATINCKSSESVLYNSNNENYLDWYQQKPGQPPKLLIYWASTRASGVPDRFSGSASGTDFTLTISSLQAEDVAVYYCQQYYSTPRTFGQGTKVEIK
categoryLabel: Yes

binder: MPV486 (antibody, V domains shown) VH: EVQLVESGGHLVQSGGSLRLSCAASGFTFSNYILNWVRQAPGKGLEWISYITGGSSAIYYADSVKGRFTISRDDAKNSLYLQMNNLRAEDTAVYYCARSHGYDSSGYYYYFAMDVWGQGTTVTVSS VL: QSVLTQPPSASGTPGQRVTISCSGSNSNIESNTVNWYQQIPGTAPKLLIYSDNRRPSGVPDRFSGSKSGTSASLAISGLQSEDEADYYCAAWDDSLIGYVFGTGTKVTV
categoryLabel: No

binder: MPV86 (antibody, V domains shown) VH: QVQLVQSGAEVKKPGSSVKVSCKASGDTFNDVALSWVRQAPGQGLEWLGGIIPFFGTANYAQRFQDRVTITADASTSTAYLELGGLRSEDTAVYYCARGWSCRNITCFMMGYYFYIMDVWGQGTLVTVSS VL: LSLSPGERATLSCRASQSVGNFLAWYQQKPGQTPRLLIQDASNRATGIPARFSGTGSGTDFTLTISSLEPEDFAVYYCQQRSNWPPTFGPGTKVDIK
categoryLabel: No

binder: MPV414 (antibody, V domains shown) VH: QVQLVQSGPEVKKPGSSVMVSCKTSGGNFNNFAISWVRQAPGQGLEWMGGIVPIFGTANYAQKSQDRVTITADPSSSTAYLQLSSLTSDDTAIYYCARDLGRSSNYYYYSVFESWGQGTLVTVSS VL: DIVMTQSPATLSLSPGERATLSCRASQSVGDKLAWYQQKPGQAPRLLIYGASTRATDIPARFSGSGSGTEFTLTVSSLQPEDFAVYYCQQYENWPPITFGQGTRLEIK
categoryLabel: No

Query: In the record for MPV482 (antibody, V domains shown) VH: EVQLVQSGGGVVQPGRSLRLSCAASGFTFSSFAMHWVRQAPGKGLEWVALISDDGNNKYHADSVKGRFTISRDSSKNTLYLQMNSLRGEDTAVYYCARDGSVVGAAAHCDHWGQGTLVTVSS VL: SYELTQPPSVSVSPGQTARITCSGDALPNQCAYWYQQKPGLAPVLLIYKDKERPSGIPERFSGSISGTTVTLTISGVQAEDEADYYCQSSDSSSTVVFGGGTKLTVL , is IC50, plaque-reduction neutralization of hMPV CAN/97-83 less than 20 ng/mL?
Result: Yes

Query: In the record for MPV483 (antibody, V domains shown) VH: EVQLVQSGAELKKPGSSVKVSCKASGDTFSNYAISWVRQAPGQGLEWMGGIIPIYNTANYAQKFQGRVTLTADESTSTAYMELSSLRSEDTAVYYCARDVRNNWSVLRGARYYYYGMDVWGQGTTVTVSS VL: DIVMTQTPFSLSASVGDRVTVTCRASQDISNSLAWFQQKPGKAPKSLIYAASSLQSGVPTRFSGGGSGTDFTLTISSLQPEDFATFYCLQYDSFPPTFGGGTKVEI , is IC50, plaque-reduction neutralization of hMPV CAN/97-83 less than 20 ng/mL?
Result: No

Query: In the record for MPV454 (antibody, V domains shown) VH: EVQLVESGGGLVKPGGSLRLSCSTSGFVFSSYAMHWVRQAPGKGLEHVSAISSTGDNTHYADSVKGRFTISRDNSRGRLYLQMTSVRPEDAALYYCVKDLYSGRFYYFLDDWGQGTRIIVSS VL: DIQVTQSPSSLSASVGDRVTISCRASQNISNYLNWFQQRPGKAPKLLIYVASTLQSGAPSRFSGSGSGTDFTLTITDLQPEDFATYYCQQSYNTPPITFGQGTRLEIK , is IC50, plaque-reduction neutralization of hMPV CAN/97-83 less than 20 ng/mL?
Result: Yes

Query: In the record for MPV464 (antibody, V domains shown) VH: QVQLQESGPGLVKPSQTLSLTCTVSGGSVRGGGDYWSWIRRPPGKGLEWIGHIYNSGTTFYNPSLKSRVTISIDTSKNQFSLKLRSVTAADTAVYYCGRVGSRATGLPDWIDPWGQGTLVTVSS VL: SYELTQPPSVSVSPGQTATITCSGTNLGAKYSCWYQQKPGQSPVLVIFQDNKRASGIPARFSASTSGDTATLTISGTQVMDEADYFCQAWDSRTAVFGGGTTLTVL , is IC50, plaque-reduction neutralization of hMPV CAN/97-83 less than 20 ng/mL?
Result: No

Query: In the record for MPV467 (antibody, V domains shown) VH: EVQLVESGGGVVRPGTSLRVSCAAFDFNFRDYGMHWVRQAPGKGLEWVAGIWYDGSNKDYADSVKGRFTISRDNSQNTLYLQMNSLRVEDTAVYYCARDPRTHREGALSHFDSWGQGTLVTVSS VL: PNELTQDPAVSVALGQTVRITCQGDSLRNYFAGWYQQKPGQAPLLVLYGENIRPSGIPDRFSGSSSGNTVSLTITGAQAEDEADYYCNSRDNSGNHWVFGGGTRLTVL , is IC50, plaque-reduction neutralization of hMPV CAN/97-83 less than 20 ng/mL?
Result: Yes
